For each record, write down the corresponding melting point.

Please state melting point for every compound in the list that follows.
1. Cc1nnsc1-c1nnc(S)o1
2. COC(=O)/C=C/c1snnc1C

Found:
["182 °C", "70 °C"]

###

Record form. Attribute: melting point. Fill in for each entry.
One number for each entry, in °C.

// worked examples, melting point included
{"Mol": "Cc1nnsc1CS(=O)(=O)c1ccccc1", "Obs Value": 118}
{"Mol": "CSc1nnc(-c2snnc2C)o1", "Obs Value": 65}

Lookup: Annotate the compound COC(=O)c1csc(-c2snnc2-c2ccccc2)n1 with its measured melting point.
Found: 124
